Data credit: PubChem BioAssay (NCATS)

# tested system: Atrial natriuretic peptide receptor 1 (Homo sapiens)
# measurement description: Natriuretic polypeptide receptor (hNpr1) antagonism - Pilot screen (AID 1347049);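 further: HEK293 cells with hNpr1 and GloSensor cGMP luciferase stimulated by 0.1 nM hNppA; agonist-evoked cGMP luminescence read 20 min after hNppA addition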; further: potency means the concentration at half of the fitted maximal effect
# test context: hNpr1 cells, antagonist mode cGMP read-out; series mostly up to 57.5 µM
Records with an inconclusive call do not appear. Active and inactive are the calls of the source. The call rests on the fitted dose curve.
metric: Potency

[[record]]
compound = "CN1C2CCCC1CC(NC(=O)c1nn(C)c3ccccc13)C2 (stereo not given)"
recorded_value = "inactive"

[[record]]
compound = "CCc1ccc(/C=C2/SC(=S)NC2=O)cc1"
recorded_value = "inactive"

[[record]]
compound = "O=Nc1c(-c2c(O)[nH]c3ccccc23)[nH]c2ccccc12"
recorded_value = "inactive"

[[record]]
compound = "O=C1c2ccccc2C(=O)c2c(NCCc3ccc(O)cc3)ccc(NCCc3ccc(O)cc3)c21"
recorded_value = "12 µM (active)"

[[record]]
compound = "Oc1cc2c(c(Cl)c1O)CCNCC2c1ccccc1 (stereo not given)"
recorded_value = "inactive"

